Target: Endoribonuclease toxin MazF (Escherichia coli (strain K12))
Test: activators of E. coli MazEF toxin-antitoxin RNase, primary screen, biochemical, fluorescence, uHTS (AID 504720)
Settings: FAM/BHQ RNA-DNA oligo cleavage fluorescence, 5 h, at 20 µM, stronger effect = higher value
Among all 350,000 compounds or so, about 1,100 (0.31%) were called active. The sample holds actives, similar compounds and a random draw of the others, so the mix is not that of the screen.
recorded metric: activation

INSERT INTO assay_data (molecule, reading) VALUES
  ('Cn1c2ccccc2n2c(=O)c(=O)n(CC(=O)c3ccc(F)cc3)nc12', '-20.6% (inactive)'),
  ('COc1ccc(NC(=O)c2oc3ccc(S(=O)(=O)N4CCOCC4)cc3c2C)cc1', '8.57% (inactive)'),
  ('Cc1ccc(Nc2nc(-c3ccc(O)cc3O)cs2)nc1', '17.4% (inactive)'),
  ('CCCCn1c(N)c(N(CC(C)C)C(=O)c2ccc(-n3c(C)ccc3C)cc2)c(=O)[nH]c1=O', '-0.38% (inactive)'),
  ('COCCn1c(SCC(=O)Nc2ccc(F)cc2F)nc2c(c1=O)SCC2', '7.1% (inactive)'),
  ('CCC(C(=O)NC1CCCCC1)N(C(=O)c1snc(C(N)=O)c1N)c1ccc(OC)cc1OC (centres undefined)', '8.72% (inactive)'),
  ('COc1cccc(OC)c1CN(C)C(=O)c1cnccc1C(F)(F)F', '-0.62% (inactive)'),
  ('COc1ccc(C(C(=O)NC2CCCCC2)N(C(=O)c2snc(C(N)=O)c2N)c2ccccc2OC)cc1 (centres undefined)', '6.68% (inactive)'),
  ('O=c1oc2ccccc2cc1-c1csc(Nc2ccc(O)cc2)n1', '78.3% (active)'),
  ('CN(C)c1ccc(Nc2c3c4c(cccc4n(C)c2=O)C(=O)c2ccccc2-3)cc1', '178% (active)'),
  ('Cc1ccccc1OCc1nnc(SCC(=O)N2c3ccccc3Sc3ccc(Cl)cc32)o1', '-5.1% (inactive)'),
  ('COc1cc(OC)cc(-c2c(C#Cc3ccsc3)c3cc(-c4ccc(OC)cc4F)ccc3n2C)c1', '-17.7% (inactive)'),
  ('Cc1nc(Nc2ccc3c(c2)OCCO3)c2nnn(Cc3ccccc3Cl)c2n1', '-3.74% (inactive)'),
  ('Cc1c(C(=O)NCCN(C)C)oc2ccc(S(=O)(=O)N3CCCC3)cc12', '111% (active)');

###

Biological target: Endoribonuclease toxin MazF (Escherichia coli (strain K12))
Assay: activators of E. coli MazEF toxin-antitoxin RNase, primary screen, biochemical, fluorescence, uHTS (AID 504720)
Details: FAM/BHQ RNA-DNA oligo cleavage fluorescence, 5 h, at 20 µM
Screen size: about 350,000 compounds; about 1,100 (0.31%) were called active. No stated cut-off is given here; in the data, active means activation above about 50%; inactive means the rest. The full list was thinned out, with actives kept by preference.
Possible outcomes: active, inactive

INSERT INTO measurements (compound, category_label) VALUES
  ('COc1c(C)c2c(c(O)c1C/C=C(\C)CCC(=O)O)C(=O)OC2', 'inactive'),
  ('O=c1cc(CN2CCN(c3cccc(Cl)c3)CC2)c2cc3c(cc2o1)CCCC3', 'inactive'),
  ('COc1ccc(N=C2C=CC(=O)O2)cc1', 'inactive'),
  ('COc1cccc2c1OCC(CN1CCN(C3CCCCC3)C(CCO)C1)=C2 (centres undefined)', 'inactive'),
  ('CCOC(=O)c1cc(NC(=O)c2cccnc2)ccn1', 'inactive'),
  ('O=C(CN1C(=O)NC(Cc2ccccc2)(Cc2ccccc2)C1=O)NCC1CCCCC1', 'inactive'),
  ('C=CCSc1nc(Cc2ccc(Cl)cc2)nc2ccccc12', 'inactive'),
  ('CCN(CC)S(=O)(=O)c1cc([N+](=O)[O-])ccc1N=Nc1c(O)n(C)c2ccccc12', 'active'),
  ('COc1ccc(CCNC(=O)CSc2nc(C)nc3c2oc2ccccc23)cc1OC', 'inactive');
